- Test system: HepG2
- PROTOCOL_SUMMARY: GSK_TCMDC: Percent inhibition of human HepG2 cell line. Test compounds present at 10uM.
- Type: functional
Checkbox rule: Inhibition lower than 10% = label 1; Inhibition not lower than 10% = label 0.

| COMPOUND | ASSIGNED_CATEGORY |
| --- | --- |
| COc1cc(NCCCNC(=O)c2cc3c(Cl)cc(Cl)cc3[nH]2)nc2ccccc12 | label 0 |
| Oc1cc(-c2cccc(C(F)(F)F)c2)nc(Nc2ccc(Cl)c(Cl)c2)n1 | label 0 |
| CN(C)c1ccc(-c2csc(C(=O)NC3CCCCN(Cc4ccc(C(C)(C)C)cc4)C3)c2)cc1.O=C(O)C(F)(F)F (stereo unspecified) | label 0 |
| CCCCCC(C)c1cc(O)c2c(c1)OC(C)(C)C=C2C1=CCN(Cc2ccccc2)CC1 (stereo unspecified) | label 0 |
| O=C(O)C(F)(F)F.c1cc(CNCC2CCCO2)cc(-c2csc(-c3nc4ccccc4[nH]3)c2)c1 (stereo unspecified) | label 1 |
| O=C(C=Cc1ccc(Cl)c(Cl)c1)NCCCCCN1CCC(c2n[nH]c3ccccc23)CC1 | label 0 |
| COc1c(OC)c(OC)c2ccccc2c1CNCCCCCCNCc1c(OC)c(OC)c(OC)c2ccccc12.Cl | label 0 |
| FC(F)(F)c1ccc2[nH]c(-c3cccc(-c4ccc(CNCCc5ccncc5)cc4)c3)nc2c1.O=C(O)C(F)(F)F | label 0 |
| Nc1c(-c2ccc(C(=O)NCCNCc3ccccc3)cc2)cnn1-c1ccc(C(F)(F)F)cc1.O=C(O)C(F)(F)F | label 0 |
| CN(C)CCCNC(=O)c1ccccc1Sc1ccccc1C#N.Cl | label 0 |
| CCCCc1ccc(C(=O)Nc2ccc3nc(N4CCN(C)CC4)cc(C)c3c2)cc1 | label 0 |
| Cc1ccc(CNC(=O)[C@H](Cc2ccccc2)Nc2cc(C)nc(Nc3ccccc3)n2)cc1.O=C(O)C(F)(F)F | label 0 |
| CC(C)(C)CC(C)(C)c1ccc(O)c(CNC2CCCCC2)c1.Cl | label 0 |
| Cl.O=C(c1ccc(-c2ccc(Cl)cc2)o1)N1CCc2cc3nccc(N4CCN5CCC[C@H]5C4)c3cc21 | label 1 |
| CC(C)Oc1ccc(N2CCN(CCCCNC(=O)c3ccc(NC(=O)c4ccc(Cl)cc4)cc3)CC2)c(OC(C)C)c1 | label 0 |
| Oc1cccc(Nc2nc(NCc3ccco3)c3ccccc3n2)c1 | label 1 |
| CN1CCN(CCCN(Cc2ccc(-c3cccc(CNCc4ccc5c(c4)OCO5)c3)cc2)C(=O)CCC2CCCC2)CC1.O=C(O)C(F)(F)F | label 0 |
| CCCCCn1c(Sc2ccc(C#N)c([N+](=O)[O-])c2)nnc1-c1cccc(Cl)c1 | label 1 |
| Br.CC1(C)NC(N)=NC(=N)N1OCCCOc1ccc(N)cc1 | label 0 |
| COc1cccc(NC(=O)Nc2ccc(-c3oc(C(=O)NCC(c4ccccc4)N(C)C)cc3-c3ccncc3)cc2)c1.O=C(O)C(F)(F)F (stereo unspecified) | label 1 |
| COc1ccc(C(C(=O)NC2CCN(C[C@H](O)c3ccnc4ccc(OC)cc34)CC2)N2CCc3ccccc3C2)cc1 (stereo partly specified) | label 0 |
| CSC1=NC(=Nc2c(C)cccc2C)C2(CCC(C(C)(C)C)CC2)N1c1ccc(O)cc1.I (stereo unspecified) | label 1 |
| COc1cc(Cc2cnc(N)nc2N)cc(OC)c1OCCNC(=O)[C@@H](N)CCC(=O)O.Cl | label 1 |
| CN(Cc1ccc(C#N)cc1)C1CCN(c2cc(NC(=O)c3cccc(F)c3)ccn2)CC1.O=C(O)C(F)(F)F | label 1 |
| COc1cc(C)nc2ccc(NC(=O)c3cc(C(F)(F)F)cc(C(F)(F)F)c3)cc12.Cl | label 0 |
| CC(=O)Nc1ccc(Nc2c3ccccc3nc3ccccc23)cc1 | label 0 |
| CCN(CC)CCCSc1ccc(-c2ccc(SCCCN(CC)CC)cc2)cc1 | label 0 |
| COc1ccc(CNC2Cc3ccccc3C2)cc1-c1ccc(S(=O)(=O)NCCN2CCCC2)c(F)c1.O=C(O)C(F)(F)F | label 0 |
| O=S(=O)(c1c(Cl)cc(Cl)cc1Cl)N1CCCCC(c2ccc(Cl)cc2)=N1 | label 0 |
| O=C(Nc1cccc([N+](=O)[O-])c1)N(Cc1ccc(Cl)c(Cl)c1)C1CCNCC1 | label 0 |
| Cc1ccc(NC(=O)c2cnc(N3CCN(c4ccncc4)CC3)c(Cl)c2)cc1.O=C(O)C(F)(F)F | label 0 |
| CC(C)(CNCc1ccc(Cl)cc1)c1nc(-c2ccc(Cl)c(O)c2)c(-c2ccncc2)[nH]1.Cl | label 0 |
| Cl.N=C(NCCc1ccccc1Cl)c1ccc2ccccc2c1 | label 0 |
| Cc1cccc2nc(-c3ccc(-c4cccc(CNCCCN5CCCC5=O)c4)cc3)[nH]c12.O=C(O)C(F)(F)F | label 1 |
